Listed here: items and their measured EC50.
target: hNLRP3 (Homo sapiens); construct: THP-1 cells were purchased from the American Type Culture Collection; test: Measurement of IL-1β production in PMA-differentiated THP-1 cells (hNLRP3 agonist; ELISA, alternative and hTRF procedures)
Please give a number only; it is taken to be in µM.

CCNCc1nc2c(N)nc3cc(-c4cc[nH]n4)ccc3c2n1C [Compound 106] = 0.7
CCN(Cc1nc2c(N)nc3cc(C(F)(F)F)ccc3c2n1CCCC(=O)NC)C(=O)OC(C)(C)C [Compound 226] = 85
CN(C)Cc1nc2c(N)nc3cc(-c4cc[nH]n4)ccc3c2[nH]1 [Compound 348] = 0.89

In plain terms, Nc1nc2cc(-c3cccnc3)ccc2c2[nH]c(CN3CCCCC3=O)nc12 [Compound 426] has a documented EC50 of 4.3

In plain terms, CN1CCN(Cc2nc3c(N)nc4cc(-c5cc[nH]n5)ccc4c3[nH]2)C(=O)C1 [Compound 350] has a documented EC50 of 10

In plain terms, CCN(Cc1nc2c(N)nc3cc(Br)ccc3c2n1CCCC(=O)NC)C(C)=O [Compound 210] has a documented EC50 of 61

In plain terms, Cc1ccccc1-c1ccc2c(c1)nc(N)c1nc(CN3CCCC3=O)[nH]c12 [Compound 282] has a documented EC50 of 4.8

In plain terms, CCN(Cc1nc2c(N)nc3cc(-c4cc[nH]n4)ccc3c2[nH]1)S(=O)(=O)N(C)C [Compound 458] has a documented EC50 of 2.1

In plain terms, CCN(Cc1nc2c(N)nc3cc(Cl)ccc3c2n1CCCC(=O)N1CCOCC1)C(C)=O [Compound 220] has a documented EC50 of 51

---

Target: hNLRP3 (Homo sapiens)
Construct: THP-1 cells were purchased from the American Type Culture Collection
Assay: Measurement of IL-1β production in PMA-differentiated THP-1 cells (hNLRP3 agonist; ELISA, alternative and hTRF procedures)
Protocol: Measurement of IL-1β production in PMA-differentiated THP-1 cells THP-1 cells were purchased from the American Type Culture Collection and sub-cultured according to instructions from the supplier. […] Cell free supernatant was collected and the production of […] was evaluated by ELISA. […] THP-1 cells were purchased from the American Type Culture Collection and sub-cultured according to instructions from the supplier. […] Cell free supernatant was collected and the production of IL-1β was evaluated by ELISA. […]
quantity_measured: EC50 (µM)
Please give a number only; it is taken to be in µM.

The measured EC50 that CCN(Cc1nc2c(N)nc3cc(-c4cc[nH]n4)ccc3c2[nH]1)C(=O)C1COC1 showed for hNLRP3 (Homo sapiens) is 7.4

The measured EC50 that CCN(Cc1nc2c(N)nc3cc(Br)ccc3c2n1CCCOC)C(C)=O showed for hNLRP3 (Homo sapiens) is 8.67

The measured EC50 that Nc1nc2cc(Cl)ccc2c2[nH]c(CN3CCCC3=O)nc12 showed for hNLRP3 (Homo sapiens) is 9.4

The measured EC50 that CCC(=O)N(CC)Cc1nc2c(N)nc3cc(-n4cccn4)ccc3c2n1CC showed for hNLRP3 (Homo sapiens) is 0.63

The measured EC50 that CCN(Cc1nc2c(N)nc3cc(Br)ccc3c2n1CCCC(=O)OC)C(C)=O showed for hNLRP3 (Homo sapiens) is 1.2

The measured EC50 that CCN(Cc1nc2c(N)nc3cc(-c4cc[nH]n4)ccc3c2[nH]1)C(=O)Cc1cccc(C)c1 showed for hNLRP3 (Homo sapiens) is 1.1

The measured EC50 that CCN(Cc1nc2c(N)nc3cc(-c4cccs4)ccc3c2[nH]1)C(C)=O showed for hNLRP3 (Homo sapiens) is 0.44

The measured EC50 that Nc1nc2cc(-c3cccnc3)ccc2c2[nH]c(CN3CCCC3=O)nc12 showed for hNLRP3 (Homo sapiens) is 7.5

The measured EC50 that Nc1nc2cc(-c3cc[nH]n3)ccc2c2[nH]c(CN3C[C@@H](c4ccccc4)CC3=O)nc12 showed for hNLRP3 (Homo sapiens) is 6.55

The measured EC50 that CC(c1nc2c(N)nc3cc(-n4cccn4)ccc3c2[nH]1)N1CCCC1=O (stereo not shown) showed for hNLRP3 (Homo sapiens) is 1.26

---

Biological target: hNLRP3 (Homo sapiens, UniProt Q96P20)
Construct: THP-1 cells were purchased from the American Type Culture Collection
Sequence (Q96P20 whole entry): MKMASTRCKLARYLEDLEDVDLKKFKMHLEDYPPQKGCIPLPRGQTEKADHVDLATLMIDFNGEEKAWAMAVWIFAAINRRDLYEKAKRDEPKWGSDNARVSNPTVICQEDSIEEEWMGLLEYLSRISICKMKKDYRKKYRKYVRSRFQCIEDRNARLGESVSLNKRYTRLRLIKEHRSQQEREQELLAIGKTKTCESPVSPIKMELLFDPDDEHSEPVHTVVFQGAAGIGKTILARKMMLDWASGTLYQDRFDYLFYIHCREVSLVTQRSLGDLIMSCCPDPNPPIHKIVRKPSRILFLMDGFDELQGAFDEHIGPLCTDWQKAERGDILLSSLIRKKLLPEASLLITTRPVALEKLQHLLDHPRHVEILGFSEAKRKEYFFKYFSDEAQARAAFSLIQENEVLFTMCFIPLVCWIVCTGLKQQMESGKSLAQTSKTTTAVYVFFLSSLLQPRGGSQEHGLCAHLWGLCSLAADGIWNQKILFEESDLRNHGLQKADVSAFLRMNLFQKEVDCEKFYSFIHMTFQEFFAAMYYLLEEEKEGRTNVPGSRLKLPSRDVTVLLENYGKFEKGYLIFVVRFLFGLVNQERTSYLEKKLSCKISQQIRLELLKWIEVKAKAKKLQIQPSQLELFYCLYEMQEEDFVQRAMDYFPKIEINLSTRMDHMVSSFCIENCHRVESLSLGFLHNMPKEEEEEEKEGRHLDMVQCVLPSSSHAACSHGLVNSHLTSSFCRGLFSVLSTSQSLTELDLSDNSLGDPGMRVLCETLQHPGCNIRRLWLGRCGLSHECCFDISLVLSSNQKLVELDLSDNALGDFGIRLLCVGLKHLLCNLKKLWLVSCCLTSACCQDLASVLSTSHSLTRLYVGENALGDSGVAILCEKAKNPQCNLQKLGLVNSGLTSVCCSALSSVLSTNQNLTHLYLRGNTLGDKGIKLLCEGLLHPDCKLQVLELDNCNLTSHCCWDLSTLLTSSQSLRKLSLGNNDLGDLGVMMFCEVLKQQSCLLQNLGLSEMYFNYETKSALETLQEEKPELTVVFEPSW
Test: Measurement of IL-1β production in PMA-differentiated THP-1 cells (hNLRP3 agonist; ELISA, alternative and hTRF procedures)
Procedure: Measurement of IL-1β production in PMA-differentiated THP-1 cells THP-1 cells were purchased from the American Type Culture Collection and sub-cultured according to instructions from the supplier. […] Cell free supernatant was collected and the production of […] was evaluated by ELISA. […] THP-1 cells were purchased from the American Type Culture Collection and sub-cultured according to instructions from the supplier. […] Cell free supernatant was collected and the production of IL-1β was evaluated by ELISA. […]
Listed here: items and their measured EC50.
Please give a number only; it is taken to be in µM.

Field: example entries. Status: answers known.
CCN(Cc1nc2c(N)nc3cc(C(F)(F)F)ccc3c2n1CCCC(=O)N1CCOCC1)C(=O)OC(C)(C)C = 93
CCNCc1nc2c(N)nc3cc(-n4cccn4)ccc3c2n1CCO = 6.3

Pending molecule:
In plain terms, CN(Cc1nc2c(N)nc3cc(-n4cccn4)ccc3c2[nH]1)S(C)(=O)=O has a documented EC50 of 1.38

---

Listed here: items and their measured pEC50.
target: hNLRP3 (Homo sapiens, UniProt Q96P20); construct: THP-1 cells were purchased from the American Type Culture Collection; experiment: Measurement of IL-1β production in PMA-differentiated THP-1 cells (hNLRP3 agonist; ELISA, alternative and hTRF procedures)
Would you please state pEC50, meaning minus log10 of the concentration in mol/L, as a bare number?

In plain terms, CCN(Cc1nc2c(N)nc3cc(-c4cc[nH]n4)ccc3c2[nH]1)C(=O)CCCc1ccccc1 has a documented pEC50 of 6.03

In plain terms, CCN(Cc1nc2c(N)nc3cc(-c4cc[nH]n4)ccc3c2[nH]1)C(=O)CC(C)(C)O has a documented pEC50 of 4.74

In plain terms, CCN(Cc1nc2c(N)nc3cc(-c4cc[nH]n4)ccc3c2n1C)C(C)=O has a documented pEC50 of 5.74

In plain terms, CCN(Cc1nc2c(N)nc3cc(-n4cccn4)ccc3c2n1CC)C(C)=O has a documented pEC50 of 6.17

In plain terms, Nc1nc2cc(-c3cccnc3)ccc2c2[nH]c(CN3CC(c4ccccc4)CC3=O)nc12 (stereo not shown) has a documented pEC50 of 5.72

In plain terms, N#Cc1ccccc1-c1ccc2c(c1)nc(N)c1nc(CN3CCCC3=O)[nH]c12 has a documented pEC50 of 5.93

In plain terms, Nc1nc2ccccc2c2c1nc(CN1CCCC1=O)n2CCCC(=O)N1CCSCC1 has a documented pEC50 of 4.19

In plain terms, Cc1cnn(-c2ccc3c(c2)nc(N)c2nc(CN4CCCC4=O)[nH]c23)c1 has a documented pEC50 of 5.29

---

biological target: hNLRP3 (Homo sapiens, UniProt Q96P20); construct: THP-1 cells were purchased from the American Type Culture Collection; experiment: Measurement of IL-1β production in PMA-differentiated THP-1 cells (hNLRP3 agonist; ELISA, alternative and hTRF procedures)
Listed here: items and their measured pEC50.
Would you please state pEC50, meaning minus log10 of the concentration in mol/L, as a bare number?

Field: example entries. Status: answers known.
CCN(Cc1nc2c(N)nc3ccc(Cl)cc3c2[nH]1)C(C)=O = 4.86
CCNCc1nc2c(N)nc3cc(C(F)(F)F)ccc3c2n1CCCC(=O)OC = 4.64
CCN(Cc1nc2c(N)nc3cc(-c4cc[nH]n4)ccc3c2[nH]1)C(=O)CCC(C)C = 6.13
CN(C)C(=O)N(C)Cc1nc2c(N)nc3cc(-c4cc[nH]n4)ccc3c2[nH]1 = 5.62
CCN(Cc1nc2c(N)nc3ccc(Br)cc3c2[nH]1)C(C)=O = 5.10

In plain terms, Nc1nc2cc(-n3cccn3)ccc2c2[nH]c(CN3C[C@@H](c4ccccc4)CC3=O)nc12 has a documented pEC50 of 6.19

In plain terms, CCNCc1nc2c(N)nc3cc(-c4ccsc4)ccc3c2[nH]1 has a documented pEC50 of 5.75

---

target: hNLRP3 (Homo sapiens, UniProt Q96P20); construct: THP-1 cells were purchased from the American Type Culture Collection; host or cells: THP-1 cells, PMA-differentiated; assay: Measurement of IL-1β production in PMA-differentiated THP-1 cells (hNLRP3 agonist; ELISA, alternative and hTRF procedures); format: cell-based
quantity_measured: pEC50
Would you please state pEC50, meaning minus log10 of the concentration in mol/L, as a bare number?

Field: example entries. Status: answers known.
CCc1ccc2c(c1)nc(N)c1nc(CN(CC)C(C)=O)[nH]c12 [Compound 171] = 5.49
CCN(Cc1nc2c(N)nc3ccccc3c2n1CCCC(=O)OC)C(C)=O [Compound 164] = 5.34
CCN(Cc1nc2c(N)nc3cc(C(C)C)ccc3c2[nH]1)C(C)=O [Compound 170] = 5.10
Nc1nc2cc(Br)ccc2c2[nH]c(CN3CCCC3=O)nc12 [Compound 294] = 5.34
CCN(Cc1nc2c(N)nc3cc(-c4cc[nH]n4)ccc3c2[nH]1)C(=O)c1ccncc1 [Compound 450] = 5.35

In plain terms, CC(=O)N(C)Cc1nc2c(N)nc3ccccc3c2[nH]1 [Compound 187] has a documented pEC50 of 4.19

In plain terms, Nc1nc2cc(-c3cncc(Cl)c3)ccc2c2[nH]c(CN3CCCC3=O)nc12 [Compound 328] has a documented pEC50 of 5.39

In plain terms, Nc1nc2cc(-n3ncc4ccccc43)ccc2c2[nH]c(CN3CCCC3=O)nc12 [Compound 157] has a documented pEC50 of 4.63
